Test name: Positive allosteric modulator activity at human CB2R expressed in CHO-K1 cell membrane assessed as CP55940 EC50 for [35S]GTPgammaS binding at 100 nM measured after 90 mins by liquid scintillation counting analysis (Rvb = 1.9 nM)
Endpoint: EC50 (nM)

> print(dat)
                           structure.string  endpoint  value.unit  reported.result
1  Cc1c(Br)cn(Cc2ccccc2Cl)c(=O)c1NC(=O)C1CCCCCC1      EC50          nM              2.4
2  Cc1c(Br)cn(Cc2ccccc2F)c(=O)c1NC(=O)C1CCCCCC1      EC50          nM                7
